# credit: ChEMBL document CHEMBL1124458

Biological target: Adenosine receptor A1 (Rattus norvegicus)
Experiment: Affinity for adenosine A1 receptor using [3H]N6-(phenylisopropyl)adenosine (R)-[3H]-PIA as a radioligand in rat brain.
Format: tissue-based
A collection of molecules and their measured log10 of Ki
Give log10 of Ki, with Ki taken in nM.

Documented log10 of Ki of Cc1ccc(NC(=S)NCCNC(=O)Cc2ccc(NC(=O)Cc3ccc(Nc4ncnc5c4ncn5C4O[C@H](CO)[C@@H](O)[C@H]4O)cc3)cc2)cc1 (stereo partly drawn) : 0.57

# log10 of Ki of O=C(CBr)NCCNC(=O)Cc1ccc(NC(=O)Cc2ccc(Nc3ncnc4c3ncn4C3O[C@H](CO)[C@@H](O)[C@H]3O)cc2)cc1 (stereo partly drawn) = 0.92

----------
Target: Adenosine receptors; A1 & A2 (Rattus norvegicus) (UniProt P29276+P25099+P30543)
Test: Relative affinities for Adenosine A2 and Adenosine A1 receptors
Type: protein assay
property_measured: Ratio

Here's what some known entries look like.
compound="O=C(CBr)NCCNC(=O)Cc1ccc(NC(=O)Cc2ccc(Nc3ncnc4c3ncn4C3O[C@H](CO)[C@@H](O)[C@H]3O)cc2)cc1 (some centres undefined)" property_measured=Ratio observed=76
compound=CCCn1c(=O)c2nc(-c3ccc(OCC(=O)NCCN=C(S)Nc4ccc(N=C=S)cc4)cc3)[nH]c2n(CCC)c1=O property_measured=Ratio observed=48.6
compound=CCCn1c(=O)c2nc(-c3ccc(OCC(=O)NCCNC(=O)Cc4ccc(N/C(S)=N/c5ccc(N=C=S)cc5)cc4)cc3)[nH]c2n(CCC)c1=O property_measured=Ratio observed=26.2

Shift focus to the following entry.
Given item O=C(Cc1ccc(NC(=O)Cc2ccc(Nc3ncnc4c3ncn4C3O[C@H](CO)[C@@H](O)[C@H]3O)cc2)cc1)NCC/N=C(\S)Nc1cccc(N=C=S)c1 (some centres undefined) , the value recorded as its Ratio is 203

----------
Target: Adenosine receptor A1 (Rattus norvegicus) (UniProt P25099)
Sequence (P25099 whole entry): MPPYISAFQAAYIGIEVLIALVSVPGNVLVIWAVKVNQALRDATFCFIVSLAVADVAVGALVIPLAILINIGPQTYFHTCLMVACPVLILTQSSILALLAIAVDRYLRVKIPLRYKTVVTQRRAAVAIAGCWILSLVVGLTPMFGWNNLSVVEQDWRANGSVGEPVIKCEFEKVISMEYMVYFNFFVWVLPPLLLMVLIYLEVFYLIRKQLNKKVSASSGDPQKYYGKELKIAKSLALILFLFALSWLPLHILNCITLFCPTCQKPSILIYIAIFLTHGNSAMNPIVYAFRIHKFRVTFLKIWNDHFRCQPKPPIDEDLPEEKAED
Assay: Inhibition of [125I]-APNEA binding to adenosine A1 receptor of rat brain at 50 nM
Reported inhibition values for a set of compounds
Express it in %; write the number only.

Consider the following illustrative entries.
compound=CCCn1c(=O)c2nc(-c3ccc(OCC(=O)NCCNC(=O)CNC(=O)CCCN4C(=O)C=CC4=O)cc3)[nH]c2n(CCC)c1=O output_unit=% observed=9
compound=CCCn1c(=O)c2nc(-c3ccc(OCC(=O)NCCNC(=O)CCCN4C(=O)C=CC4=O)cc3)[nH]c2n(CCC)c1=O output_unit=% observed=15
compound=CCCn1c(=O)c2nc(-c3ccc(OCC(=O)NCCNC(=O)c4ccc(CBr)cc4)cc3)[nH]c2n(CCC)c1=O output_unit=% observed=15
compound=CCCn1c(=O)c2nc(-c3ccc(OCC(=O)NCCNC(=O)CCCCCCC(=O)ON4C(=O)CCC4=O)cc3)[nH]c2n(CCC)c1=O output_unit=% observed=32
compound=CCCn1c(=O)c2nc(-c3ccc(OCC(=O)NCCNC(=O)CBr)cc3)[nH]c2n(CCC)c1=O output_unit=% observed=16

Reported inhibition for O=C(CBr)NCCNC(=O)Cc1ccc(NC(=O)Cc2ccc(Nc3ncnc4c3ncn4C3O[C@H](CO)[C@@H](O)[C@H]3O)cc2)cc1 (some centres not stated) was 38

Notebook: CCCn1c(=O)c2nc(-c3ccc(OCC(=O)NCCN=C(S)Nc4ccc(N=C=S)cc4)cc3)[nH]c2n(CCC)c1=O , inhibition read as 29
